# Tested system: D(4) dopamine receptor (Homo sapiens)
# Assay explanation: In vitro binding affinity at human cloned Dopamine receptor D4 expressed in Sf9 cell membranes
pKi: −log10 of the molar value.
Measure: pKi

The reported pKi of the compound `Cc1ccc2c(c1)C(N1CCN(c3ccccc3)CC1)=Nc1cccnc1N2` was < 6.00

###

# Tested system: UniProt P14842
# Sequence (P14842 whole entry): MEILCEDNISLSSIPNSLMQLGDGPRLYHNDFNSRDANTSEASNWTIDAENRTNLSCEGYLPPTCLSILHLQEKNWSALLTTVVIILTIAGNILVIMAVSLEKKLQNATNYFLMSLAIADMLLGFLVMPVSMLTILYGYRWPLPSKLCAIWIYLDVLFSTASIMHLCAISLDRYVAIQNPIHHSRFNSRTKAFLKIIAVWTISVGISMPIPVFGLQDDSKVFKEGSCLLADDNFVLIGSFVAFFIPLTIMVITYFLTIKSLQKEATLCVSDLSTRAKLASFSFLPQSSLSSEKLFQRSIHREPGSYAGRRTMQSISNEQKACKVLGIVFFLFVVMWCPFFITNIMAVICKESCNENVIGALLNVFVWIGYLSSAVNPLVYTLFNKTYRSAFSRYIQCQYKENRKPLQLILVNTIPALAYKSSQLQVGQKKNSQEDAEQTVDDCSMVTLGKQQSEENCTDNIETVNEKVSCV
# Assay explanation: In vitro binding affinity at serotonin 5-hydroxytryptamine 2A receptor in rat cortical membrane
# Type: cell membranes
What Ki was measured for each of the following?
Answer format: value, then unit.

Summary: `CN1CCN(C2=Nc3cccnc3Nc3ccc(Cl)cc32)CC1` , UniProt P14842, Ki = 35 nM

Case `CN1CCCN(C2=Nc3cccnc3Nc3ccc(Cl)cc32)CC1` , UniProt P14842, Ki recorded as 164 nM

Ki for UniProt P14842 with input `Cc1ccc2c(c1)C(N1CCN(C)CC1)=Nc1cccnc1N2` equals 37 nM

###

# Tested system: Adrenergic receptor alpha-1 (Rattus norvegicus, UniProt P15823+P23944+P43140)
# Assay explanation: In vitro binding affinity at Alpha-1 adrenergic receptor in rat cortical tissues
Measure: Ki

Form: molecule = `Clc1ccc2c(c1)C(N1CCN(c3ccccc3)CC1)=Nc1cccnc1N2` ; Ki = > 1000 nM

Record `FC(F)(F)c1cccc(N2CCN(C3=Nc4cccnc4Nc4ccc(Cl)cc43)CC2)c1` , field Ki: > 1000 nM

// sample `Cc1ccc2c(c1)C(NCCCN(C)C)=Nc1cccnc1N2` , its Ki was > 1000 nM

Recorded result, `Clc1ccc2c(c1)C(NCCN1CCOCC1)=Nc1cccnc1N2` , Ki: > 1000 nM

For `Cc1ccc2c(c1)C(N1CCN(CCc3ccccc3)CC1)=Nc1cccnc1N2` the molecule record lists Ki as 172 nM

Recorded result, `CN(C)CCCNC1=Nc2cccnc2Nc2ccc(Cl)cc21` , Ki: > 1000 nM

Note to self: Ki recorded for `Cc1ccc2c(c1)C(N1CCN(c3cccc(Cl)c3)CC1)=Nc1cccnc1N2` was > 1000 nM

Form field Ki, entry `Cc1ccc2c(c1)C(NC1CCN(C)CC1)=Nc1cccnc1N2` : 18 nM

For reference, reported Ki for `Cc1ccc2c(c1)C(N1CCN(c3cccc(C(F)(F)F)c3)CC1)=Nc1cccnc1N2` stands at > 1000 nM

Reported Ki of `Cc1ccc2c(c1)C(N1CCN(C)CC1)=Nc1cccnc1N2` : 108 nM

So, `CN1CCN(C2=Nc3cccnc3Nc3ccc(Cl)cc32)CC1` ? Its Ki was 79 nM

###

Exercise: state measured pKi for each of the molecules provided.
# Tested system: D(4) dopamine receptor (Homo sapiens)
# Sequence (P21917 whole entry): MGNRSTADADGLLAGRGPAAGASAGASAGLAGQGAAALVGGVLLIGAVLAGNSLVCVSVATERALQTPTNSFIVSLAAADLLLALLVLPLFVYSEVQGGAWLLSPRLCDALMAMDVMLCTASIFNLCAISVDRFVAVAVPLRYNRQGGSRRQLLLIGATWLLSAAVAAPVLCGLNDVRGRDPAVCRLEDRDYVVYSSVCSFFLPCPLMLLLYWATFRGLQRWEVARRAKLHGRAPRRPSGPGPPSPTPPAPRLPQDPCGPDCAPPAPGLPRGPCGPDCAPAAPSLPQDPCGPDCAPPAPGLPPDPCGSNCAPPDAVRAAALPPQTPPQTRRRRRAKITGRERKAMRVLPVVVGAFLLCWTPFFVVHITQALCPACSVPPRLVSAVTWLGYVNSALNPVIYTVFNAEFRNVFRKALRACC
# Assay explanation: In vitro binding affinity at human cloned Dopamine receptor D4 expressed in Sf9 cell membranes
Scale for pKi: -log10 of concentration given in mol/L; no unit attached.

Record for `Cc1ccc2c(c1)C(N1CCN(C3CCCCC3)CC1)=Nc1cccnc1N2` under target or system D(4) dopamine receptor (Homo sapiens): pKi reported as 7.08

pKi value, target or system D(4) dopamine receptor (Homo sapiens), for Cc1ccc2c(c1)C(NC1CC3CCC(C1)N3Cc1ccccc1)=Nc1cccnc1N2 (stereo unspecified) : 6.88

Simply: `Clc1ccc2c(c1)C(N1CCN(Cc3ccccc3)CC1)=Nc1cccnc1N2` , D(4) dopamine receptor (Homo sapiens), pKi = 6.96

pKi on D(4) dopamine receptor (Homo sapiens) for `Clc1ccc2c(c1)C(N1CCN(C3CCCCC3)CC1)=Nc1cccnc1N2` is 7.32

The molecule `CN1CCN(C2=Nc3cccnc3Nc3ccc(Cl)cc32)CC1` , tested on D(4) dopamine receptor (Homo sapiens), showed pKi of 7.62
